- Study Target: cIAP1-BIR3 (Homo sapiens, UniProt Q13490)
- Construct: cIAP1-BIR3
- Sequence (Q13490 253-363 limits assumed): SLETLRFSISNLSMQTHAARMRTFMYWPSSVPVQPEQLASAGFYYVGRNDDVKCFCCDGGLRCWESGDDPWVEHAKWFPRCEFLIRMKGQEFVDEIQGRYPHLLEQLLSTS
- Test: cIAP1-BIR3 fluorescence polarization binding assay
- Experimental Context: FP, probe AbuRPFK-5FAM (SM5F) 5 nM, cIAP1-BIR3 15 nM, 60 min at 25° C.
pIC50: −log10 of the molar value.
# pIC50 annotations

CN[C@@H](C)C(=O)N[C@H](C(=O)N1CCC[C@H]1C(=O)N[C@@H]1CCOc2c(-c3cccc4c3OCC[C@H]4NC(=O)[C@@H]3CCCN3C(=O)[C@@H](NC(=O)[C@H](C)NC)C(C)C)cccc21)C(C)C [Compound V-C] ... 8.00 to 9.00
CC[C@H](NC(=O)[C@H](C)NC)C(=O)N1CCC[C@H]1C(=O)N[C@@H]1CCCc2c(Nc3cccc4c3CCC[C@H]4NC(=O)[C@@H]3CCCN3C(=O)[C@H](CC)NC(=O)[C@H](C)NC)cccc21 [Compound VI-C] ... 8.00 to 9.00
CN[C@@H](C)C(=O)N[C@H](C(=O)N1CCC[C@H]1C(=O)N[C@@H]1CCCc2c(NC(=O)c3cccc4c3CCC[C@H]4NC(=O)[C@@H]3CCCN3C(=O)[C@@H](NC(=O)[C@H](C)NC)C3CCOCC3)cccc21)C1CCOCC1 [Compound VII-B] ... 8.00 to 9.00
CN[C@@H](C)C(=O)N[C@H](C(=O)N1CCC[C@H]1C(=O)N[C@@H]1CCCc2c(-c3cccc4c3CCC[C@H]4NC(=O)[C@@H]3CCCN3C(=O)[C@@H](NC(=O)[C@H](C)NC)C3CCOCC3)cccc21)C1CCOCC1 [Compound V-K] ... 8.00 to 9.00
CN[C@@H](C)C(=O)N[C@H](C(=O)N1CCC[C@H]1C(=O)N[C@@H]1CCCc2c(-c3cccc(-c4cccc5c4CCC[C@H]5NC(=O)[C@@H]4CCCN4C(=O)[C@@H](NC(=O)[C@H](C)NC)C(C)(C)C)c3)cccc21)C(C)(C)C [Compound III-F] ... 8.00 to 9.00
CN[C@@H](C)C(=O)N[C@H](C(=O)N1CCC[C@H]1C(=O)N[C@@H]1CCCc2cc(OCCOCCOc3ccc4c(c3)CCC[C@H]4NC(=O)[C@@H]3CCCN3C(=O)[C@@H](NC(=O)[C@H](C)NC)C3CCCCC3)ccc21)C1CCCCC1 [Compound II-D] ... 8.00 to 9.00
CN[C@@H](C)C(=O)N[C@H](C(=O)N1CCC[C@H]1C(=O)N[C@@H]1CCCc2c(Nc3cccc4c3CCC[C@H]4NC(=O)[C@@H]3CCCN3C(=O)[C@@H](NC(=O)[C@H](C)NC)C3CCOCC3)cccc21)C1CCOCC1 [Compound VI-A] ... 8.00 to 9.00

Let's switch to this compound now.
*Q* I'd like to know its pIC50. The compound in question is CN[C@@H](C)C(=O)N[C@H](C(=O)N1CCC[C@H]1C(=O)N[C@@H]1CCCc2c(OCCCCCOc3cccc4c3CCC[C@H]4NC(=O)[C@@H]3CCCN3C(=O)[C@@H](NC(=O)[C@H](C)NC)C3CCOCC3)cccc21)C1CCOCC1 [Compound I-A]
*A* 8.00 to 9.00

---

# IC50 annotations
- Study Target: cIAP1-BIR3 (Homo sapiens)
- Construct: cIAP1-BIR3
- Test: cIAP1-BIR3 fluorescence polarization binding assay
- Experimental Context: FP, probe AbuRPFK-5FAM (SM5F) 5 nM, cIAP1-BIR3 15 nM, 60 min at 25° C.

CC[C@H](NC(=O)[C@H](C)NC)C(=O)N1CCC[C@H]1C(=O)N[C@@H]1CCCc2c1cccc2N1CCN(c2cccc3c2CCC[C@H]3NC(=O)[C@@H]2CCCN2C(=O)[C@H](CC)NC(=O)[C@H](C)NC)CC1 [VIII-E] ... 1 to 10 nM

Let's switch to this compound now.
*Q* API: value(readout=IC50, system=cIAP1-BIR3 (Homo sapiens)) for record CC[C@H](NC(=O)[C@H](C)NC)C(=O)N1CCC[C@H]1C(=O)N[C@@H]1CCOc2c(-c3cccc4c3OCC[C@H]4NC(=O)[C@@H]3CCCN3C(=O)[C@H](CC)NC(=O)[C@H](C)NC)cccc21 [Compound V-B]
*A* 1 to 10 nM

---

- Study Target: cIAP1-BIR3 (Homo sapiens)
- Construct: cIAP1-BIR3
- Test: cIAP1-BIR3 fluorescence polarization binding assay
- Experimental Context: FP, probe AbuRPFK-5FAM (SM5F) 5 nM, cIAP1-BIR3 15 nM, 60 min at 25° C.
- From the text: IAPs are one main cause of cancer development and may result from overexpression of anti-apoptotic proteins. This protocol establishes three binding assays for […] Bir3 domain, cIAP1 and cIAP2 using FP (fluorescence polariation) technology. The fluorescence probe used is a synthetic peptide conjugated to 5-carboxyfluorescein (AbuRPFK-5FAM). The fluorescence polarization value (mP) was detected by Envision, which was used to reflect the binding degree of protein and fluorescent marker. • a. […]
pIC50: −log10 of the molar value.
# pIC50 annotations

CN[C@@H](C)C(=O)N[C@H](C(=O)N1CCC[C@H]1C(=O)N[C@@H]1CCCc2c(Oc3cccc4c3CCC[C@H]4NC(=O)[C@@H]3CCCN3C(=O)[C@@H](NC(=O)[C@H](C)NC)C3CCOCC3)cccc21)C1CCOCC1 ... 8.00 to 9.00

*Q* I'd like to know its pIC50. The molecule in question is `CN[C@@H](C)C(=O)N[C@H](C(=O)N1CCC[C@H]1C(=O)N[C@@H]1CCCc2c(-c3ccc(-c4ccc(-c5cccc6c5CCC[C@H]6NC(=O)[C@@H]5CCCN5C(=O)[C@@H](NC(=O)[C@H](C)NC)C5CCCCC5)cc4)cc3)cccc21)C1CCCCC1`
*A* 8.00 to 9.00

---

# pIC50 annotations
- Study Target: cIAP2-BIR3 (Homo sapiens, UniProt Q13489)
- Construct: cIAP2-BIR3; purchased Reaction Biology APT-11-372
- Sequence (Q13489 238-349 limits assumed): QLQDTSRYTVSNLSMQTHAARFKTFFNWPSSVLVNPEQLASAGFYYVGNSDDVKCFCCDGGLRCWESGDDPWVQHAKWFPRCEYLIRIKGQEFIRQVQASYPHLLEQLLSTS
- Test: cIAP2-BIR3 fluorescence polarization binding assay
- Experimental Context: FP, probe AbuRPFK-5FAM (SM5F) 5 nM, cIAP2-BIR3 80 nM, 60 min at 25° C.
pIC50: −log10 of the molar value.

Use the examples below as a reference point.
CN[C@@H](C)C(=O)N[C@H](C(=O)N1CCC[C@H]1C(=O)N[C@@H]1CCCc2c(-c3cccc4c3CCC[C@H]4NC(=O)[C@@H]3CCCN3C(=O)[C@@H](NC(=O)[C@H](C)NC)C3CCCCC3)cccc21)C1CCCCC1 ... 8.00 to 9.00
CN[C@@H](C)C(=O)N[C@H](C(=O)N1CCC[C@H]1C(=O)N[C@@H]1CCCc2c(OCCc3ccc(CCOc4cccc5c4CCC[C@H]5NC(=O)[C@@H]4CCCN4C(=O)[C@@H](NC(=O)[C@H](C)NC)C4CCCCC4)cc3)cccc21)C1CCCCC1 [Compound IV] ... 7.00 to 8.00
CC[C@H](NC(=O)[C@H](C)NC)C(=O)N1CCC[C@H]1C(=O)N[C@@H]1CCCc2c(OCCCCCOc3cccc4c3CCC[C@H]4NC(=O)[C@@H]3CCCN3C(=O)[C@H](CC)NC(=O)[C@H](C)NC)cccc21 ... 8.00 to 9.00

Let's switch to this molecule now.
*Q* I'd like to know its pIC50. The molecule in question is `CN[C@@H](C)C(=O)N[C@H](C(=O)N1CCC[C@H]1C(=O)N[C@@H]1CCCc2c(Nc3cccc4c3CCC[C@H]4NC(=O)[C@@H]3CCCN3C(=O)[C@@H](NC(=O)[C@H](C)NC)C(C)C)cccc21)C(C)C`
*A* 7.00 to 8.00

---

# IC50 annotations
- Study Target: cIAP1-BIR3 (Homo sapiens, UniProt Q13490)
- Construct: cIAP1-BIR3
- Test: cIAP1-BIR3 fluorescence polarization binding assay
- Experimental Context: FP, probe AbuRPFK-5FAM (SM5F) 5 nM, cIAP1-BIR3 15 nM, 60 min at 25° C.
- Source text: IAPs are one main cause of cancer development and may result from overexpression of anti-apoptotic proteins. This protocol establishes three binding assays for […] Bir3 domain, cIAP1 and cIAP2 using FP (fluorescence polariation) technology. The fluorescence probe used is a synthetic peptide conjugated to 5-carboxyfluorescein (AbuRPFK-5FAM). The fluorescence polarization value (mP) was detected by Envision, which was used to reflect the binding degree of protein and fluorescent marker. • a. […]

Use the examples below as a reference point.
CN[C@@H](C)C(=O)N[C@H](C(=O)N1C[C@@H](O)C[C@H]1C(=O)N[C@@H]1CCCc2c(-c3cccc4c3CCC[C@H]4NC(=O)[C@@H]3C[C@H](O)CN3C(=O)[C@@H](NC(=O)[C@H](C)NC)C3CCCCC3)cccc21)C1CCCCC1 ... 1 to 10 nM
CC[C@H](NC(=O)[C@H](C)NC)C(=O)N1CCC[C@H]1C(=O)N[C@@H]1CCCc2c(Oc3cccc4c3CCC[C@H]4NC(=O)[C@@H]3CCCN3C(=O)[C@H](CC)NC(=O)[C@H](C)NC)cccc21 ... 1 to 10 nM
CN[C@@H](C)C(=O)N[C@H](C(=O)N1CCC[C@H]1C(=O)N[C@@H]1CCCc2cc(-c3ccc(-c4ccc5c(c4)CCC[C@H]5NC(=O)[C@@H]4CCCN4C(=O)[C@@H](NC(=O)[C@H](C)NC)C4CCCCC4)cc3)ccc21)C1CCCCC1 ... 10 to 100 nM

*Q* I'd like to know its IC50. The molecule in question is `CN[C@@H](C)C(=O)N[C@H](C(=O)N1CCC[C@H]1C(=O)N[C@@H]1CCCc2c1cccc2N1CCN(c2cccc3c2CCC[C@H]3NC(=O)[C@@H]2CCCN2C(=O)[C@@H](NC(=O)[C@H](C)NC)C(C)C)CC1)C(C)C`
*A* 1 to 10 nM

*Q* And the next one, `CN[C@@H](C)C(=O)N[C@H](C(=O)N1CCC[C@H]1C(=O)N[C@@H]1CCCc2c(OC/C=C/COc3cccc4c3CCC[C@H]4NC(=O)[C@@H]3CCCN3C(=O)[C@@H](NC(=O)[C@H](C)NC)C3CCCCC3)cccc21)C1CCCCC1` ?
*A* 1 to 10 nM

*Q* And the next one, `CN[C@@H](C)C(=O)N[C@H](C(=O)N1CCC[C@@H]1C(=O)N[C@@H]1CCCc2ccc(-c3ccc(-c4ccc5c(c4)[C@H](NC(=O)[C@@H]4CCCN4C(=O)[C@@H](NC(=O)[C@H](C)NC)C4CCCCC4)CCC5)cc3)cc21)C1CCCCC1` ?
*A* 10 to 100 nM

*Q* And the next one, `CC[C@H](NC(=O)[C@H](C)NC)C(=O)N1CCC[C@H]1C(=O)N[C@@H]1CCCc2c(OCCCCCOc3cccc4c3CCC[C@H]4NC(=O)[C@@H]3CCCN3C(=O)[C@H](CC)NC(=O)[C@H](C)NC)cccc21` ?
*A* 1 to 10 nM

*Q* And the next one, CN[C@@H](C)C(=O)N[C@H](C(=O)N1CCC[C@H]1C(=O)N[C@@H]1CCCc2c(OCCc3ccc(CCOc4cccc5c4CCC[C@H]5NC(=O)[C@@H]4CCCN4C(=O)[C@@H](NC(=O)[C@H](C)NC)C4CCCCC4)cc3)cccc21)C1CCCCC1 [Compound IV] ?
*A* 10 to 100 nM

This collection of values is drawn from patent US20220220152A1.
